# subject_of_test: Delta-type opioid receptor (Homo sapiens, UniProt P41143)
# Sequence (P41143 whole entry): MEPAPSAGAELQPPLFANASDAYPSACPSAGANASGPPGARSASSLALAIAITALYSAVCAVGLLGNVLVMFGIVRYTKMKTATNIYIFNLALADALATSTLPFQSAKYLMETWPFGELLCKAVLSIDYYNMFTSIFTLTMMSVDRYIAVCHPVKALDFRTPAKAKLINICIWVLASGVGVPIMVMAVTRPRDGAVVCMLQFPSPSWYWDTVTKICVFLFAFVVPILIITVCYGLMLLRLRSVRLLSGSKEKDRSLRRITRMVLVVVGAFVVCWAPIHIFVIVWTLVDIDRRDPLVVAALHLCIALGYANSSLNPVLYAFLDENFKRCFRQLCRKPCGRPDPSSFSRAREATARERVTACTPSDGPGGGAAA
# assay_explanation: Agonist activity at human delta opioid receptor expressed in HN9.10 cells assessed by [35S]GTP-gamma-S binding assay relative to control
# Assay type: functional, cell-based
Square brackets hold non-standard residues; d marks the D form. Peptide text beside a SMILES is read from it. * marks the point of attachment. OBzl(3,5-(CF3)2) = FC(F)(F)c1cc(CO*)cc(C(F)(F)F)c1
readout_kind: Emax (%)
# output: bare number, implied unit %

INSERT INTO measurements (compound, subject_of_test, readout_kind, units_of_measure, test_result) VALUES
  ('CC(C)C[C@H](NC(=O)[C@@H]1CCCN1C(=O)[C@H](CC[S+](C)[O-])NC(=O)[C@H](Cc1ccccc1)NC(=O)CNC(=O)[C@@H](C)NC(=O)[C@@H](N)Cc1ccc(O)cc1)C(=O)N[C@@H](Cc1c[nH]c2ccccc12)C(=O)OCc1cc(C(F)(F)F)cc(C(F)(F)F)c1 (some centres undefined)', 'Delta-type opioid receptor (Homo sapiens, UniProt P41143)', 'Emax', '%', 52),
  ('CCCC[C@@H](C(=O)N1CCC[C@H]1C(=O)N[C@@H](CC(C)C)C(=O)N[C@@H](Cc1c[nH]c2ccccc12)C(=O)OCc1cc(C(F)(F)F)cc(C(F)(F)F)c1)N(C)C(=O)[C@H](Cc1ccccc1)NC(=O)CNC(=O)[C@@H](C)NC(=O)[C@@H](N)Cc1ccc(O)cc1', 'Delta-type opioid receptor (Homo sapiens, UniProt P41143)', 'Emax', '%', 290),
  ('CC(C)C[C@H](NC(=O)[C@@H]1CCCN1C(=O)CNC(=O)[C@H](Cc1ccccc1)NC(=O)CNC(=O)[C@@H](C)NC(=O)[C@@H](N)Cc1ccc(O)cc1)C(=O)N[C@@H](Cc1c[nH]c2ccccc12)C(=O)OCc1cc(C(F)(F)F)cc(C(F)(F)F)c1 (H-Y[dA]GFGPLW-{OBzl(3,5-(CF3)2)})', 'Delta-type opioid receptor (Homo sapiens, UniProt P41143)', 'Emax', '%', 34);

Continue with the compound presented below.
Look up Emax: CSCC[C@H](NC(=O)[C@H](Cc1ccccc1)NC(=O)CNC(=O)[C@@H](C)NC(=O)[C@@H](N)Cc1ccc(O)cc1)C(=O)N1CCC[C@H]1C(=O)N[C@@H](CC(C)C)C(=O)N[C@@H](Cc1c[nH]c2ccccc12)C(=O)OCc1cc(C(F)(F)F)cc(C(F)(F)F)c1
45

The reported measurements were obtained from ChEMBL document CHEMBL1143706.
